Molecular target: GDSL-like protein (Collinsella aerofaciens)
Sequence (A4E8S4 whole entry): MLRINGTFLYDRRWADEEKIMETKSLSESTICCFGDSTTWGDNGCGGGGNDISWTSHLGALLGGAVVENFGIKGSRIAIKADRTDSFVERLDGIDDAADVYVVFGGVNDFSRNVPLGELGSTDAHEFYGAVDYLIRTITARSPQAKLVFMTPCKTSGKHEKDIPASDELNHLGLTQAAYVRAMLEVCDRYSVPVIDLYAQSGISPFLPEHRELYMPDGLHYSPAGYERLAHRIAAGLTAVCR
Assay: The drug is tested on Collinsella aerofaciens strain: ATCC25986 for biotransformation. The drug concentrations were measured before and after a 12-h incubation by liquid-chromatography-coupled mass spectrometry (LC–MS)
Type: ADME
Design: dose 2 uM
Conditions: 2 µM
ASSAY_ENDPOINT: Bacterial Biotransformation

C[C@]12CCC(=O)C=C1[C@@H]1C[C@@H]1[C@H]1[C@@H]3[C@@H]4C[C@@H]4[C@@]4(CCC(=O)O4)[C@@]3(C)CC[C@@H]12 [DROSPIRENONE] = Compound NOT metabolized
C#C[C@]1(O)CC[C@H]2[C@@H]3CCC4=CC(=O)CC[C@@H]4[C@H]3CC[C@@]21CC [LEVONORGESTREL] = Compound NOT metabolized
CC(=O)SCC(Cc1ccccc1)C(=O)NCC(=O)OCc1ccccc1 (centres undefined) [RACECADOTRIL] = Compound metabolized
CC(=O)OCC(=O)[C@@]1(OC(C)=O)[C@@H](C)C[C@H]2[C@@H]3C[C@H](F)C4=CC(=O)C=C[C@]4(C)[C@@]3(F)[C@@H](O)C[C@@]21C [DIFLORASONE DIACETATE] = Compound metabolized
CC(=O)OCC(CCn1cnc2cnc(N)nc21)COC(C)=O [FAMCICLOVIR] = Compound metabolized
CC(=O)Oc1ccc(C(c2ccc(OC(C)=O)cc2)c2ccccn2)cc1 [BISACODYL] = Compound metabolized
CC(=O)OCC(=O)NCCCOc1cccc(CN2CCCCC2)c1 [ROXATIDINE ACETATE] = Compound NOT metabolized
C#C[C@]1(O)CC[C@H]2[C@@H]3CCC4=Cc5oncc5C[C@]4(C)[C@H]3CC[C@@]21C [DANAZOL] = Compound NOT metabolized
CCN(CC)C(=O)/C(C#N)=C/c1cc(O)c(O)c([N+](=O)[O-])c1 [ENTACAPONE] = Compound NOT metabolized
C[C@@H]1CC[C@H]2[C@@H](C)C(=O)O[C@@H]3O[C@@]4(C)CC[C@@H]1[C@]32OO4 [ARTEMISININ] = Compound NOT metabolized

Entry under test: C#C[C@]1(OC(C)=O)CC[C@H]2[C@@H]3CCC4=CC(=O)CC[C@@H]4[C@H]3CC[C@@]21C [NORETHINDRONE ACETATE] . Its Bacterial Biotransformation was Compound NOT metabolized

Entry under test: CC(=O)Nc1ccc(OC(C)=O)cc1 [DIACETAMATE] . Its Bacterial Biotransformation was Compound metabolized

Entry under test: Nc1ccc(/N=N/c2ccccc2)c(N)n1 [PHENAZOPYRIDINE] . Its Bacterial Biotransformation was Compound NOT metabolized

Entry under test: CCS(=O)(=O)CCn1c([N+](=O)[O-])cnc1C [TINIDAZOLE] . Its Bacterial Biotransformation was Compound NOT metabolized
